System: rat liver microsomes
Assay: Stimulation of adrenochrome formation (superoxide) by rat hepatic microsomal incubations
Assay type: biochemical
Conditions: without SOD; average ± standard error of triplicate
*1 amine or outer side, *2 acyl side, *3 side chain or, on linkers, in order; H or OH if unused. Where a SMILES comes first, the peptide text is derived from it. Bridges are numbered along the chain shown (N, C = ends). Roman numbers before positions name the chains, in order. [ ]: non-standard residue; d: D form. Actinocin(9to1) = Cc1c2oc3c(C)ccc(C(=O)[*:1])c3nc-2c(C(=O)[*:2])c(N)c1=O; NMeV = CN[C@H](C(=O)O)C(C)C; Sar = CNCC(=O)O
# adrenochrome formation listing for each entry below
measure name: adrenochrome formation

• Cc1c2oc3c(C)c4oc(CC(=O)NCCCCN)nc4c(C(=O)N[C@@H]4C(=O)N[C@H](C(C)C)C(=O)N5CCC[C@H]5C(=O)N(C)CC(=O)N(C)[C@@H](C(C)C)C(=O)O[C@@H]4C)c3nc-2c(C(=O)N[C@@H]2C(=O)N[C@H](C(C)C)C(=O)N3CCC[C@H]3C(=O)N(C)CC(=O)N(C)[C@@H](C(C)C)C(=O)O[C@@H]2C)c(N)c1=O [RAD III (3c)] = 22.1 ± 2.2 nmol/min per mg of protein
• Cc1c2oc3c(C)c(O)c(N)c(C(=O)N[C@@H]4C(=O)N[C@H](C(C)C)C(=O)N5CCC[C@H]5C(=O)N(C)CC(=O)N(C)[C@@H](C(C)C)C(=O)O[C@@H]4C)c3nc-2c(C(=O)N[C@@H]2C(=O)N[C@H](C(C)C)C(=O)N3CCC[C@H]3C(=O)N(C)CC(=O)N(C)[C@@H](C(C)C)C(=O)O[C@@H]2C)c(N)c1=O [SAD (2)] = 19.3 ± 1.04 nmol/min per mg of protein
• Cc1c2oc3c(C)c4oc(-c5ccccc5)nc4c(C(=O)N[C@@H]4C(=O)N[C@H](C(C)C)C(=O)N5CCC[C@H]5C(=O)N(C)CC(=O)N(C)[C@@H](C(C)C)C(=O)O[C@@H]4C)c3nc-2c(C(=O)N[C@@H]2C(=O)N[C@H](C(C)C)C(=O)N3CCC[C@H]3C(=O)N(C)CC(=O)N(C)[C@@H](C(C)C)C(=O)O[C@@H]2C)c(N)c1=O [RAD II (3b)] = 18.8 ± 1.9 nmol/min per mg of protein
• Cc1c2oc3c(C)ccc(C(=O)N[C@@H]4C(=O)N[C@H](C(C)C)C(=O)N5CCC[C@H]5C(=O)N(C)CC(=O)N(C)[C@@H](C(C)C)C(=O)O[C@@H]4C)c3nc-2c(C(=O)N[C@@H]2C(=O)N[C@H](C(C)C)C(=O)N3CCC[C@H]3C(=O)N(C)CC(=O)N(C)[C@@H](C(C)C)C(=O)O[C@@H]2C)c(N)c1=O [AMD (1), Actinomycin D] (I: T[dV]P[Sar][NMeV] / II: T[dV]P[Sar][NMeV]; ester I:1-I:C, II:1-II:C; linker I:N-II:N via Actinocin(9to1)) = 2.29 ± 0.33 nmol/min per mg of protein
